Reference source: patent US8809372B2

So I've got a bunch of molecules here, and I need their pIC50 values.
Protein target, amino acids: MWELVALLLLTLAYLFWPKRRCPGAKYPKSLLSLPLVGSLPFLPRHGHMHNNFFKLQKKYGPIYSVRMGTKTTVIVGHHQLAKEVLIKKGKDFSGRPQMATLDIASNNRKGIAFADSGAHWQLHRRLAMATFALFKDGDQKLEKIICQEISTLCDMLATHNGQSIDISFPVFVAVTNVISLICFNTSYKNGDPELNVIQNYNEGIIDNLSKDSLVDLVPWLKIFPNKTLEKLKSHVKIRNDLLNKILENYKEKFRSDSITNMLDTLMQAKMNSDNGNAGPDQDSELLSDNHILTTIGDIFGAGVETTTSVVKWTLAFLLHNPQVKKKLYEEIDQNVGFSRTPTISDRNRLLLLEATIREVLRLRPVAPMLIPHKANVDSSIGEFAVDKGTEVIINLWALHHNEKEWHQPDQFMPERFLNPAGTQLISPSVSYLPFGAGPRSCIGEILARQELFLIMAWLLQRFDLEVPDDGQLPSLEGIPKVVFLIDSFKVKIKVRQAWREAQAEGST
pIC50: −log10 of the molar value.

query: Need pIC50, item CC(O)(c1ccncc1)c1cnc(-c2ccc(F)cc2)s1 (single isomer, unassigned) [Example 9]
result: 6.70 to 7.30

query: Further, for COc1ccc(-c2ccc(C(C)(O)c3ccncc3)nc2)cc1 (racemic) ?
result: 5.00 to 6.70

query: Further, for CC(O)(c1ccncc1)c1cnc(-c2ccc(F)cc2)s1 (racemic) [Example 7] ?
result: 6.70 to 7.30

query: Further, for Cn1cc(-c2ccc(C(C)(O)c3ccncc3)s2)ccc1=O (single isomer, unassigned; (-)) ?
result: 6.70 to 7.30

query: Further, for CC(O)(c1ccncc1)c1cnc(-c2ccc(F)cc2)s1 (single isomer, unassigned) [Example 8] ?
result: 5.00 to 6.70

query: Further, for CC(O)(c1ccncc1)c1nc(-c2ccc(F)cc2)no1 (single isomer, unassigned; (+)) ?
result: > 7.30
